Origin of values: ChEMBL document CHEMBL1909294

- System: Hepatotoxicity;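 also: Hepatitis-related hepatic side effect score taken from the training data of DILIps, a prediction system for drug-induced liver injury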; also: call rule not given here
- Experimental Setup: Liver
Property Name: HepSE_hepatitis
Respond numerically, and do not add a unit to the figure.

Which HepSE_hepatitis value is on record for OC(Cn1cncn1)(Cn1cncn1)c1ccc(F)cc1F ?
1

Which HepSE_hepatitis value is on record for CC(C)n1c(/C=C/C(O)CC(O)CC(=O)O)c(-c2ccc(F)cc2)c2ccccc21 (stereo not given) ?
1

Which HepSE_hepatitis value is on record for CN/C(=N/CCSCc1nc[nH]c1C)NC#N ?
0

Which HepSE_hepatitis value is on record for CCCc1cc(=O)[nH]c(=S)[nH]1 ?
1

Which HepSE_hepatitis value is on record for N[C@@H]1C[C@H]1c1ccccc1.N[C@H]1C[C@@H]1c1ccccc1 ?
1
